target: T1, human PDL1-Fc fusion protein (human); test: ELISA, human PDL1-Fc coated 200 ng/well, anti-His HRP
T1 construct: also called human PDL1-Fc recombinant protein
T1 sequence (chain, as listed by the source limits assumed): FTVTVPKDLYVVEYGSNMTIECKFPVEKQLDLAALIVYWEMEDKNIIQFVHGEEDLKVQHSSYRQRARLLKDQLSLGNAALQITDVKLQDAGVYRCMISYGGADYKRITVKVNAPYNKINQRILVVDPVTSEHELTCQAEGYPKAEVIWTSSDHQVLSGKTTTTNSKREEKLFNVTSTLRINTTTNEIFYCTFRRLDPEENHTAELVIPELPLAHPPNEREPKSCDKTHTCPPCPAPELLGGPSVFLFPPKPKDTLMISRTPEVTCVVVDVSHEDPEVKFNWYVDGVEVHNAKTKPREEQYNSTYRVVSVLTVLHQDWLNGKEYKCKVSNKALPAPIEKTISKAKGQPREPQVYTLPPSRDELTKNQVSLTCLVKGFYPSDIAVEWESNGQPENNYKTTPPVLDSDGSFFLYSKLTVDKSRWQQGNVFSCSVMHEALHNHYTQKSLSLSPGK
Sorting guide: entries reporting EC50 beneath 0.03 µg/mL go in the True pile, the rest go in the False pile.

Study these solved cases before continuing.
BINDER	GROUP_LABEL
PDL1-1v16 (VHH, Humanized PDL1-1, His-tagged) VHH: QVQLVESGGGLVKPGGSLRLSCAASGFTVSNSAVSWARQAPGKGLEWVSLIDSNRNTVYAQSVRGRFTISRDNAKNSVYLQMNSLKAEDTAVYYCAKGIWGSTLWGQGTTVTVSS	False
PDL1-1v11 (VHH, Humanized PDL1-1, His-tagged) VHH: QVQLQESGGGLVKPGGSLRLSCAASGFTVSNSAVSWARQAPGKGLEWVSLIDSNRNTVYAQSVRGRFTISRDNAKNSVYLQMNSLRAEDTAVYYCAKGIWGSTLWGQGTTVTVSS	True

Enquiry: hey, is EC50 for PDL1-1v15 (VHH, Humanized PDL1-1, His-tagged) VHH: QVQLVESGGGLVKPGGSLRLSCAASGFTVSNSAVSWARQAPGKGLEWVSLIDSNRNTVYAQSVRGRFTISRDNAKNTVYLQMNSLRAEDTAVYYCAKGIWGSTLWGQGTTVTVSS lower than 0.03 µg/mL or not?
Return: False

Enquiry: hey, is EC50 for PDL1-1v14 (VHH, Humanized PDL1-1, His-tagged) VHH: QVQLVESGGGLVKPGGSLRLSCAASGFTVSNSAVSWARQAPGKGLEWVSLIDSNRNTVYAQSVRGRFTISRDNVKNSVYLQMNSLRAEDTAVYYCAKGIWGSTLWGQGTTVTVSS lower than 0.03 µg/mL or not?
Return: False

Enquiry: hey, is EC50 for PDL1-1v2 (VHH, Humanized PDL1-1, His-tagged) VHH: QVQLVESGGGLVKPGGSLRLSCAASGFTVSNSAVSWARQAPGKGLEWVSLIDSNRNTVYAQSVRGRFTISRDNAKNSVYLQMNSLRAEDTAVYYCAKGIWGSTLWGQGTTVTVSS lower than 0.03 µg/mL or not?
Return: False
